Provide the reported EC50, CreLuc reporter, 100% hP of each item.
MEASURED_TARGET: T1, human neuropeptide Y2 receptor (human, UniProt P49146 1-381)
T1 sequence (looked up): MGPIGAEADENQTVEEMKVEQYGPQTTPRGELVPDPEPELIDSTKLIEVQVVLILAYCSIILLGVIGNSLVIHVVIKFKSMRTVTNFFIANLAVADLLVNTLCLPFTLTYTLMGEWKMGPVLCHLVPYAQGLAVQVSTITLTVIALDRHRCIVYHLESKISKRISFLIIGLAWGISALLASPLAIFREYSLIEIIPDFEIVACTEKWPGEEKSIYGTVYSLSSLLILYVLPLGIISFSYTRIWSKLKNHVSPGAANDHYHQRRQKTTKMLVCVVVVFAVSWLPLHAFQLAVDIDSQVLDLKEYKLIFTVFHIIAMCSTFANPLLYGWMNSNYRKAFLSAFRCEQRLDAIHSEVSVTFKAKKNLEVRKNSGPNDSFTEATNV
ASSAY_REMARKS: cell-based or functional assay
*1 amine or outer side, *2 acyl side, *3 side chain or, on linkers, in order; H or OH if unused. Where no end group is shown, it is not given here. Side-chain parts run from the residue outwards. [ ]: non-standard residue; d: D form. The star is where a group is joined. C20 diacid = O=C(O)CCCCCCCCCCCCCCCCCCC(=O)*; γGlu = O=C(O)[C@H](CCC(=O)[*:2])N[*:1]; εLys = N[C@@H](CCCCN[*:1])C(=O)[*:2]; dOR = not defined here; Aib = CC(C)(N)C(=O)O
The response must be a number in nM with no trailing unit.

So, YXEGTFTSDYSIXLDKQAQXAFIRHLINKXTRQRY (Aib at 2, 20, 30; aMeL at 13; Lys29 epsilon-amino acylated with C20DA-gGlu-gGlu-gGlu-gGlu-gGlu-gGlu-eLys; C-terminal amide) [Compound 22] ? Its EC50, CreLuc reporter, 100% hP was 72

Sample YXEGTFTSDYSIXLENQAQXAFVRHLINKXTRQRY (Aib at 2, 13, 20, 30; Lys29 epsilon-amino acylated with C18DA-gGlu-gGlu-gGlu-gGlu-gGlu-gGlu-eLys; C-terminal amide) [Compound 6] ; EC50, CreLuc reporter, 100% hP observed: 51

EC50, CreLuc reporter, 100% hP reading for YXEGTFTSDYSIXLEKQAQXAFLRHLINKXTRQRY (Aib at 2, 13, 20, 30; Lys29 epsilon-amino acylated with C18DA-gGlu-gGlu-gGlu-gGlu-gGlu-gGlu-eLys; C-terminal amide) [Compound 37] : 41.3

Per the records, this binder ( YXEGTFTSDLSIXLEKQAQXAFIRHLINKXTRQRY (Aib at 2, 13, 20, 30; Lys29 epsilon-amino acylated with C20DA-gGlu-gGlu-gGlu-gGlu-gGlu-gGlu-eLys; C-terminal amide) [Compound 21] ) has EC50, CreLuc reporter, 100% hP equal to 111

Entry YXEGTFTSDYSIXLDKQAQXAFVRHLINKXTRQRY (Aib at 2, 13, 20, 30; Lys29 epsilon-amino acylated with C20DA-gGlu-gGlu-gGlu-gGlu-gGlu-gGlu-eLys; C-terminal amide) [Compound 74] ; EC50, CreLuc reporter, 100% hP = 90.6

Form field EC50, CreLuc reporter, 100% hP, entry Y[Aib]EGTFTSDYSI[Aib]LDKQAQ[Aib]AFVRHLINK([εLys-γGlu-γGlu-γGlu-γGlu-γGlu-γGlu-γGlu-C20 diacid])[Aib]TRQ[dOR]Y-NH2 (reading uncertain) [Compound 16] : 59.1
